- testedTarget: Glutaminase kidney isoform, mitochondrial (Homo sapiens)
- Sequence (O94925 whole entry): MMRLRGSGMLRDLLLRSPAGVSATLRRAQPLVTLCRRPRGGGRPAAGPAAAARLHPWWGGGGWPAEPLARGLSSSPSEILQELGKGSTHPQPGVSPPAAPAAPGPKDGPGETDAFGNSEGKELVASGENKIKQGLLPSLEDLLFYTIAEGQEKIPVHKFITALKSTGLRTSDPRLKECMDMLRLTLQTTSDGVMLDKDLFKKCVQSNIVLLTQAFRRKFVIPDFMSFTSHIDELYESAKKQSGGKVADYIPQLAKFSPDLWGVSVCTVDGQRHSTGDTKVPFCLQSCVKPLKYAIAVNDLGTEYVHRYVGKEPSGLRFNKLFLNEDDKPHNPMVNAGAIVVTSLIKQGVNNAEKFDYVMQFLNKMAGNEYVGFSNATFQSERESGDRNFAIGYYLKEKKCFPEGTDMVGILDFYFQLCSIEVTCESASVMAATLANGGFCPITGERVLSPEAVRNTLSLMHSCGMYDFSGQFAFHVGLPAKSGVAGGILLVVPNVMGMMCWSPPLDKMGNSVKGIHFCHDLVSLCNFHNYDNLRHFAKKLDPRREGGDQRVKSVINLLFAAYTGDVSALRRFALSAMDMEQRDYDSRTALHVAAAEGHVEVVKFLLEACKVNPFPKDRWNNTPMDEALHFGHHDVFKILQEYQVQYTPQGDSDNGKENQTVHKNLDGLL
- protocolDescription: Inhibition of human kidney glutaminase (124 to 669) using L-[3H]-glutamine as substrate after 45 mins by GLS assay
Classify by IC50. Ranges: low group (below 5 µM), middle group (5 µM to below 20 µM), high group (20 µM or more)

molecule	assignedCategory
Nc1nnc(CCCc2nnc(NC(=O)Cc3ccccc3)s2)s1	middle group
CN1CCCC1CCNC(=O)CCCCc1nnc(NC(=O)Cc2ccccc2)s1 (configuration not stated)	middle group
O=C(CCCCc1nnc(NC(=O)Cc2ccccc2)s1)NCCN1CCCCC1	middle group
Cc1ccc(CC(=O)Nc2nnc(CCCCc3nnc(N)s3)s2)cc1	low group
CN(CCN1CCCC1)C(=O)CCCCc1nnc(NC(=O)Cc2ccccc2)s1	high group
CN(C)c1ccc(CNC(=O)CCCCc2nnc(NC(=O)Cc3ccccc3)s2)cc1	high group
Nc1nnc(CCCCc2nnc(NC(=O)CCc3ccccc3)s2)s1	high group
CCN(CC)CCNC(=O)CCCCc1nnc(NC(=O)Cc2ccccc2)s1	high group
Nc1nnc(CCCCc2nnc(NC(=O)CC3CCCCC3)s2)s1	high group
NCCNC(=O)CCCCc1nnc(NC(=O)Cc2ccccc2)s1	high group
Nc1nnc(CCCCc2nnc(NC(=O)c3ccccc3)s2)s1	middle group
Nc1nnc(CCCCc2cnc(NC(=O)Cc3ccccc3)s2)s1	high group
O=C(CCCCc1nnc(NC(=O)Cc2ccccc2)s1)NCc1ccccc1	high group
O=C(CCCCc1nnc(NC(=O)Cc2ccccc2)s1)NCCN1CCC(O)CC1	low group
CC(C)(C)NC(=O)CCCCc1nnc(NC(=O)Cc2ccccc2)s1	middle group
CC(C(=O)Nc1nnc(CCCCc2nnc(N)s2)s1)c1ccccc1 (configuration not stated)	middle group
Nc1nnc(CCCCc2nnc(NC(=O)Cc3ccc(F)cc3)s2)s1	low group
O=C(CCCCc1nnc(NC(=O)Cc2ccccc2)s1)NCCN1CCC(c2ccccc2)CC1	low group
O=C(CCCCc1nnc(NC(=O)Cc2ccccc2)s1)NCc1ccc(C(F)(F)F)cc1	high group
CN(C(=O)CCCCc1nnc(NC(=O)Cc2ccccc2)s1)C(C)(C)C	middle group
Nc1nnc(CC[S+]([O-])CCc2nnc(NC(=O)Cc3ccccc3)s2)s1 (configuration not stated)	high group
Nc1nnc(CCCCc2csc(NC(=O)Cc3ccccc3)n2)s1	high group
